Origin of the recorded values: paper PMC8610152

Field: Perforin expression in CTLs. Provide a value for each of the sequences that follow.
Test system: neoepitope-specific CTLs
Procedure details: Intracellular perforin staining of CTLs
Type: cell-based, human
Condition context: T cells:T2 cells loaded with wild-type neoepitopes 10:1, 24 h, brefeldin A 1 h, CD8+ gate, flow cytometry, mean ± SD of 3 independent experiments

Short answer for FIGITATVV [mutABCA2] : Perforin expression in CTLs was 29.87% ± 2.12%

Short answer for YLLPVTCGV [mutSP140Y1] : Perforin expression in CTLs was 56.20% ± 1.28%

Short answer for PLLPVTCGV [mutSP140] : Perforin expression in CTLs was 44.70% ± 1.68%

Short answer for SVIISVDGV [mutSTOM] : Perforin expression in CTLs was 35.53% ± 1.02%

Short answer for FLGITATVV [mutABCA2L2] : Perforin expression in CTLs was 36.57% ± 2.01%

Short answer for SLIISVDGV [mutSTOML2] : Perforin expression in CTLs was 41.30% ± 1.76%

----------
System name: HLA-A0201 molecules on the T2 cell surface (Homo sapiens, UniProt P04439, D140Y/D185E/D98H/E176V/E277Q/G131W/G231S/I119V/I121R/I166T/I218V/L300P/L318F/N151K/N90K/P208A/P217A/Q86G/Q94H/R138H/R169H/T345S)
Construct: The MFI (mean fluorescence intensity) of HLA-A0201 molecules on the T2 cell surface was detected by flow cytometry; endogenous in cells; host or cells: T2 cells
Procedure details: T2 binding (affinity) assay
Condition context: T2 cells 1 × 10^6 cells/well, 50 µg epitope + 3 µg β2M in 1 mL FBS-free RPMI1640, 37 °C, 18 h, PE-HLA-A2 antibody, flow cytometry, FI = (MFI epitope – MFI control)/MFI control, mean ± SD
Measurement name: FI (fluorescence index)
Returns: the value as a bare number; no unit string appended.

Short answer for SLIISVDGV [mutSTOML2] : FI (fluorescence index) was 4.71

Short answer for SVIISVDGV [mutSTOM] : FI (fluorescence index) was 4.27

Short answer for PLLPVTCGV [mutSP140] : FI (fluorescence index) was 3.79

Short answer for FIGITATVV [mutABCA2] : FI (fluorescence index) was 3.32

Short answer for FLGITATVV [mutABCA2L2] : FI (fluorescence index) was 4.49

----------
Tested on: naïve CD8+ T cells
Procedure details: CFSE proliferation of CD8+ T cells stimulated by neoepitope-loaded DCs
Format: cell-based, human
Condition context: DCs loaded with 10 µg/mL neoepitope, T cells:DCs 10:1, two rounds of 7 days, flow cytometry, mean ± SD
Measurement name: Proliferation of specific CD8+ T cells

Short answer for PLLPVTCGV [mutSP140] : Proliferation of specific CD8+ T cells was 18.87% ± 0.81%

Short answer for FLGITATVV [mutABCA2L2] : Proliferation of specific CD8+ T cells was 16.47% ± 1.59%

Short answer for SLIISVDGV [mutSTOML2] : Proliferation of specific CD8+ T cells was 17.70% ± 1.14%

Short answer for FIGITATVV [mutABCA2] : Proliferation of specific CD8+ T cells was 12.53% ± 1.79%

Short answer for SVIISVDGV [mutSTOM] : Proliferation of specific CD8+ T cells was 14.03% ± 0.76%

Short answer for YLLPVTCGV [mutSP140Y1] : Proliferation of specific CD8+ T cells was 23.43% ± 1.17%
